Tested on: LOX IMVI
Test: NCI tumour cell line growth inhibition, 48 h
Active and inactive are the calls of the source. Rule as the data show it: active = GI50 up to about 1.1 µM and inactive = higher.
// allowed return values: active, inactive

COc1cc(/C=c2\sc3n(c2=O)C(c2ccc(Cl)cc2)C2=C(CCCC2C)N=3)cc(OC)c1OC (stereo not given): inactive
CN(C)CCCCCNc1c2ccccc2nc2cccc([N+](=O)[O-])c12: active
COc1cc2c(cc1OC)[C@@H]([C@H](O)c1ccccc1)NCC2: inactive
C=CCOC1OC(CS(=O)(=O)O)C(OC(C)=O)C(OC(C)=O)C1OC(C)=O (stereo not given): inactive

Here's the next entry for you.
Dear colleague, could you share the recorded outcome for "CCN(CC)CSc1nc2ccccc2s1" when you have a moment?
inactive

* * *

Tested on: UO-31
Assay: NCI tumour cell line growth inhibition, 48 h
Activity calls are given as the source filed them. No stated cut-off is given here; in the data, active = GI50 up to about 1.1 µM and inactive = higher.
// allowed return values: active, inactive

O=C(CCCN1CCC2(CC1)CC(c1ccccc1)OC2=O)c1ccc(F)cc1 (stereo unspecified): inactive

Dear colleague, could you share the recorded outcome for COc1cc(/C=C2\CCC/C(=C\c3ccc(OC(=O)CCCCC4CCSS4)c(OC)c3)C2=O)ccc1OC(=O)CCCCC1CCSS1 (stereo unspecified) when you have a moment?
inactive

Next molecule up: "CCOC(=O)C1=C(C)NC(C)=C(C(=O)OCC)C1c1ccc(C)cc1"
inactive

Next molecule up: "O=C(O)CSc1ccc([N+](=O)[O-])cc1[N+](=O)[O-]"
inactive

Next molecule up: "CCOC(=O)C1(CO)CSCCSC1"
inactive

Next molecule up: "Cc1ccc(CNNC(=O)c2cc[n+]([BH2-]C#N)cc2)cc1"
inactive

Next molecule up: O=c1[nH]c(=O)n(C2CC(O)C(CO)O2)cc1/N=N/NCc1ccccc1 (stereo unspecified)
inactive

Next molecule up: "O=C1C(Br)=CC2(C=C1Br)CCNC1=C2C(=O)c2cccnc2C1=O"
inactive

Next molecule up: COc1ccc(C(C2=C(O)CC(C)OC2=O)C2=C(O)CC(C)OC2=O)cc1 (stereo unspecified)
inactive

Next molecule up: "Cc1cnoc1/N=C1\C=C(O)C(=O)c2ccccc21"
inactive

Next molecule up: "Cc1ccc(/C=C2\CNC/C(=C\c3ccc(C)cc3)C2=O)cc1"
inactive

Next molecule up: COc1cccc(N[C@@H]2c3cc4c(cc3C(c3cc(OC)c(O)c(OC)c3)[C@H]3C(=O)OCC32)OCO4)c1 (stereo partly specified)
active

Next molecule up: "CN(C)c1ccc(/N=N\c2cccc3ncccc23)cc1"
inactive

Next molecule up: "COC(=O)c1ccc(/C=C2\Cc3ccccc3C2=O)cc1"
inactive

Next molecule up: "Cc1ccc(-c2cc(O)c3cc4c(cc3n2)OCO4)cc1"
inactive

* * *

System: MCF7
Assay: NCI tumour cell line growth inhibition, 48 h
Active and inactive are the calls of the source. No stated cut-off is given here; in the data, active = GI50 up to about 1.1 µM and inactive = higher.
The entries below come with measured GI50 values attached.

Cc1nc2ccc(NCCN(C)C)c3c(=O)c4cc(O)ccc4n1c23: 0.743 µM (active)
CCOC(=O)N/N=C(\CC)NO: > 100 µM (inactive)
COc1ccc2nc(NCN3C(=O)c4ccccc4C3=O)sc2c1: > 100 µM (inactive)
CCCCC/C(=N\c1[nH]nnc1C(N)=O)OCC: > 100 µM (inactive)

Entry "COc1cccc(OC)c1/C=C1\OC(=O)c2cccc(OC)c21" : reported GI50 = ?
3.14 µM (inactive)
